system.name: human CB2R (Homo sapiens)
Construct: host or cells: CHO cells
Sequence (P34972 whole entry): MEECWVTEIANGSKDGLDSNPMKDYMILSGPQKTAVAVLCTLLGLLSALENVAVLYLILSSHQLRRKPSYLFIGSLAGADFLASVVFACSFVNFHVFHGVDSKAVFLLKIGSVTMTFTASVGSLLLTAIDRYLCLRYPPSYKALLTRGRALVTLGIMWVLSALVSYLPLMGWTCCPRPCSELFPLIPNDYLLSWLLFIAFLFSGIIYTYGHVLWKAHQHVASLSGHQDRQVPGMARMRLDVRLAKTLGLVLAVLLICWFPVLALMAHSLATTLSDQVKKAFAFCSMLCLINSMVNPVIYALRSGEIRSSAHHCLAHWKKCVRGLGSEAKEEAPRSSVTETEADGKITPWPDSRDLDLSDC
method: CB2R mediated modulation of cAMP synthesis
Format: cell-based
pEC50: −log10 of the molar value.
metric.name: pEC50

[[record]]
molecule = "COCCOCC(C)(C)c1cc(NC(=O)C(C)(C)S(=O)(=O)CCC(F)(F)F)on1"
numeric_readout = 7.57

[[record]]
molecule = "CC1(c2cc(NC(=O)C(C)(C)S(=O)(=O)C3CCOCC3)on2)CCCO1 (stereo not shown)"
numeric_readout = 7.89

[[record]]
molecule = "C[C@H](O)C(C)(C)c1cc(NC(=O)C(C)(C)S(=O)(=O)C2CCOCC2)no1"
numeric_readout = 7.60

[[record]]
molecule = "CCn1nc(NC(=O)C(C)(C)S(=O)(=O)C2CCOCC2)nc1-c1ccc(OC)cc1"
numeric_readout = 7.11

[[record]]
molecule = "C[C@H](O)C(C)(C)c1cc(NC(=O)C(C)(C)S(=O)(=O)C2CCOCC2)on1"
numeric_readout = 7.85

[[record]]
molecule = "CC(C)(C(=O)Nc1cc(C2(COC3CCCCO3)CCCCC2)no1)S(=O)(=O)C1CCOCC1 (stereo not shown)"
numeric_readout = 7.66

[[record]]
molecule = "CC(O)C(C)(C)c1cc(NC(=O)C(C)(C)S(=O)(=O)CCCC(F)(F)F)on1 (stereo not shown)"
numeric_readout = 7.51


====

system.name: human CB1R (Homo sapiens)
Construct: host or cells: CHO cells
Sequence (P21554 whole entry): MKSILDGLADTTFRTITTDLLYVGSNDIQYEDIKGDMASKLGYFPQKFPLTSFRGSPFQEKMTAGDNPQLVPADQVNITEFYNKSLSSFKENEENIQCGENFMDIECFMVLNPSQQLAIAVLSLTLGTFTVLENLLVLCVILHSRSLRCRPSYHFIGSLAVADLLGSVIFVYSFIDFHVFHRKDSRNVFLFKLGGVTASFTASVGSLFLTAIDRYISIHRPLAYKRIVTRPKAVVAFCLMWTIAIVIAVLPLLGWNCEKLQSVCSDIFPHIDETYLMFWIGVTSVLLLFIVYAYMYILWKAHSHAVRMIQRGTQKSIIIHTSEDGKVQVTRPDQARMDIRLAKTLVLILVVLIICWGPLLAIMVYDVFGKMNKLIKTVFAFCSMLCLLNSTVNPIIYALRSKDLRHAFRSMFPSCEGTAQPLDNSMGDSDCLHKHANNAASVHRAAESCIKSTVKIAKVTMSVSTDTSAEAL
method: CB1R mediated modulation of cAMP synthesis
Format: cell-based
pEC50: −log10 of the molar value.
Readings of pEC50 for the listed compounds
metric.name: pEC50

[[record]]
molecule = "CCOCCOCC(C)(C)c1cc(NC(=O)C(C)(C)S(=O)(=O)C2CCOCC2)on1"
system_name = "human CB1R (Homo sapiens)"
metric_name = "pEC50"
result = "< 4.30"

[[record]]
molecule = "CCn1nc(NC(=O)C(C)(C)S(=O)(=O)C2CCOCC2)nc1-c1ccc(OC)cc1"
system_name = "human CB1R (Homo sapiens)"
metric_name = "pEC50"
result = "< 3.30"

[[record]]
molecule = "COCCOC(C)(C)c1cc(NC(=O)C(C)(C)S(=O)(=O)C2CCOCC2)on1"
system_name = "human CB1R (Homo sapiens)"
metric_name = "pEC50"
result = "< 4.30"


Measured values drawn from patent US8372874B2 for this set.
